ASSAY_CONDITIONS: in water, 308.15 K
ATTRIBUTE_MEASURED: solubility (mole fraction)

Request: Entry Cc1cc(O)c2c(c1)C(=O)c1cc(O)cc(O)c1C2=O has what solubility (mole fraction)?
Result: 1.32e-07

Request: Entry O=C1c2cccc(O)c2C(=O)c2c(O)cc(CO)cc21 has what solubility (mole fraction)?
Result: 1.58e-06

###

ASSAY_CONDITIONS: in ethanol, 308.15 K
ATTRIBUTE_MEASURED: solubility (mole fraction)

Request: Entry Cc1cc(O)c2c(c1)C(=O)c1cc(O)cc(O)c1C2=O has what solubility (mole fraction)?
Result: 0.00017

Request: Entry O=C1c2cccc(O)c2C(=O)c2c(O)cc(CO)cc21 has what solubility (mole fraction)?
Result: 5.2e-05

###

ASSAY_CONDITIONS: in water, 318.15 K
ATTRIBUTE_MEASURED: solubility (mole fraction)
Form: value (number only, do not type unit).

Request: Entry Cc1cc(O)c2c(c1)C(=O)c1cc(O)cc(O)c1C2=O has what solubility (mole fraction)?
Result: 2.15e-07

Request: Entry O=C1c2cccc(O)c2C(=O)c2c(O)cc(CO)cc21 has what solubility (mole fraction)?
Result: 2.72e-06

###

ASSAY_CONDITIONS: in ethanol, 323.15 K
Exercise: for every item that follows, state its recorded solubility (mole fraction).
Form: value (number only, do not type unit).

Request: Entry O=C1c2cccc(O)c2C(=O)c2c(O)cc(CO)cc21 has what solubility (mole fraction)?
Result: 9e-05

Request: Entry Cc1cc(O)c2c(c1)C(=O)c1cc(O)cc(O)c1C2=O has what solubility (mole fraction)?
Result: 0.000268

###

ASSAY_CONDITIONS: in ethanol, 298.15 K
ATTRIBUTE_MEASURED: solubility (mole fraction)
Form: value (number only, do not type unit).

Request: Entry O=C1c2cccc(O)c2C(=O)c2c(O)cc(CO)cc21 has what solubility (mole fraction)?
Result: 3.83e-05

Request: Entry Cc1cc(O)c2c(c1)C(=O)c1cc(O)cc(O)c1C2=O has what solubility (mole fraction)?
Result: 0.000132

###

Exercise: for every item that follows, state its recorded solubility (mole fraction).
ASSAY_CONDITIONS: in ethanol, 288.15 K
Form: value (number only, do not type unit).

Request: Entry Cc1cc(O)c2c(c1)C(=O)c1cc(O)cc(O)c1C2=O has what solubility (mole fraction)?
Result: 9.39e-05

Request: Entry O=C1c2cccc(O)c2C(=O)c2c(O)cc(CO)cc21 has what solubility (mole fraction)?
Result: 2.58e-05

###

ASSAY_CONDITIONS: in water, 298.15 K
ATTRIBUTE_MEASURED: solubility (mole fraction)
Form: value (number only, do not type unit).

Request: Entry Cc1cc(O)c2c(c1)C(=O)c1cc(O)cc(O)c1C2=O has what solubility (mole fraction)?
Result: 8.2e-08

Request: Entry O=C1c2cccc(O)c2C(=O)c2c(O)cc(CO)cc21 has what solubility (mole fraction)?
Result: 8.17e-07

###

Exercise: for every item that follows, state its recorded solubility (mole fraction).
ASSAY_CONDITIONS: in water, 313.15 K

Request: Entry Cc1cc(O)c2c(c1)C(=O)c1cc(O)cc(O)c1C2=O has what solubility (mole fraction)?
Result: 1.79e-07

Request: Entry O=C1c2cccc(O)c2C(=O)c2c(O)cc(CO)cc21 has what solubility (mole fraction)?
Result: 2.1e-06
